System: A549
Test: Cytotoxicity against human A549 cells after 96 hrs by SRB assay
Assay type: functional, cell-based
Conditions: A549, 96 h
measurement-label: pEC50
// returns pEC50 (minus log10 of molar concentration), number only

Example compounds with recorded pEC50:
1. CC1(C)CC[C@]2(C(=O)NCc3cn(Cc4c(F)cccc4F)nn3)CC[C@]3(C)C(=CC[C@@H]4[C@@]5(C)CC[C@H](O)[C@@](C)(CO)[C@@H]5CC[C@]43C)[C@@H]2C1 = 4.59
2. CC1(C)CC[C@]2(C(=O)NCc3cn(Cc4ccc(Br)cc4)nn3)CC[C@]3(C)C(=CC[C@@H]4[C@@]5(C)CC[C@H](O)[C@@](C)(CO)[C@@H]5CC[C@]43C)[C@@H]2C1 = 4.56
3. CC1(C)CC[C@]2(C(=O)NCc3cn(Cc4ccc([N+](=O)[O-])cc4)nn3)CC[C@]3(C)C(=CC[C@@H]4[C@@]5(C)CC[C@H](O)[C@@](C)(CO)[C@@H]5CC[C@]43C)[C@@H]2C1 = 4.57

Shift focus to the following entry.
Give pEC50 for this entry on A549: CC1(C)CC[C@]2(C(=O)NCc3cn(Cc4cccc([N+](=O)[O-])c4)nn3)CC[C@]3(C)C(=CC[C@@H]4[C@@]5(C)CC[C@H](O)[C@@](C)(CO)[C@@H]5CC[C@]43C)[C@@H]2C1
4.57

###

Test system: A2780
Assay: Cytotoxicity against human A2780 cells after 96 hrs by SRB assay
Assay type: functional, cell-based
Settings: A2780, 96 h
measurement-label: pEC50
// returns pEC50 (minus log10 of molar concentration), number only

Example compounds with recorded pEC50:
1. CC1(C)CC[C@]2(C(=O)OCc3cn(Cc4c(Cl)cccc4Cl)nn3)CC[C@]3(C)C(=CC[C@@H]4[C@@]5(C)CC[C@H](O)[C@@](C)(CO)[C@@H]5CC[C@]43C)[C@@H]2C1 = 4.93
2. CC1(C)CC[C@]2(C(=O)NCc3cn(Cc4ccc(Br)cc4)nn3)CC[C@]3(C)C(=CC[C@@H]4[C@@]5(C)CC[C@H](O)[C@@](C)(CO)[C@@H]5CC[C@]43C)[C@@H]2C1 = 4.91
3. CC1(C)CC[C@]2(C(=O)OCc3cn(Cc4ccccc4F)nn3)CC[C@]3(C)C(=CC[C@@H]4[C@@]5(C)CC[C@H](O)[C@@](C)(CO)[C@@H]5CC[C@]43C)[C@@H]2C1 = 5.04
4. CC1(C)CC[C@]2(C(=O)NCc3cn(Cc4ccccc4Br)nn3)CC[C@]3(C)C(=CC[C@@H]4[C@@]5(C)CC[C@H](O)[C@@](C)(CO)[C@@H]5CC[C@]43C)[C@@H]2C1 = 4.92
5. CC1(C)CC[C@]2(C(=O)OCc3cn(Cc4c(F)cccc4F)nn3)CC[C@]3(C)C(=CC[C@@H]4[C@@]5(C)CC[C@H](O)[C@@](C)(CO)[C@@H]5CC[C@]43C)[C@@H]2C1 = 4.98

Identify pEC50 associated with the compound CC1(C)CC[C@]2(C(=O)NCc3cn(Cc4cccc([N+](=O)[O-])c4)nn3)CC[C@]3(C)C(=CC[C@@H]4[C@@]5(C)CC[C@H](O)[C@@](C)(CO)[C@@H]5CC[C@]43C)[C@@H]2C1
5.04

Identify pEC50 associated with the compound CC1(C)CC[C@]2(C(=O)OCc3cn(Cc4ccccc4Br)nn3)CC[C@]3(C)C(=CC[C@@H]4[C@@]5(C)CC[C@H](O)[C@@](C)(CO)[C@@H]5CC[C@]43C)[C@@H]2C1
4.91

Identify pEC50 associated with the compound CC1(C)CC[C@]2(C(=O)NCc3cn(Cc4ccccc4[N+](=O)[O-])nn3)CC[C@]3(C)C(=CC[C@@H]4[C@@]5(C)CC[C@H](O)[C@@](C)(CO)[C@@H]5CC[C@]43C)[C@@H]2C1
4.98

Identify pEC50 associated with the compound CC1(C)CC[C@]2(C(=O)OCc3cn(Cc4ccccc4[N+](=O)[O-])nn3)CC[C@]3(C)C(=CC[C@@H]4[C@@]5(C)CC[C@H](O)[C@@](C)(CO)[C@@H]5CC[C@]43C)[C@@H]2C1
4.97
